target: Protein kinase C beta type (Homo sapiens, UniProt P05771); assay: Inhibition of PKCbeta1
Sequence (P05771 whole entry): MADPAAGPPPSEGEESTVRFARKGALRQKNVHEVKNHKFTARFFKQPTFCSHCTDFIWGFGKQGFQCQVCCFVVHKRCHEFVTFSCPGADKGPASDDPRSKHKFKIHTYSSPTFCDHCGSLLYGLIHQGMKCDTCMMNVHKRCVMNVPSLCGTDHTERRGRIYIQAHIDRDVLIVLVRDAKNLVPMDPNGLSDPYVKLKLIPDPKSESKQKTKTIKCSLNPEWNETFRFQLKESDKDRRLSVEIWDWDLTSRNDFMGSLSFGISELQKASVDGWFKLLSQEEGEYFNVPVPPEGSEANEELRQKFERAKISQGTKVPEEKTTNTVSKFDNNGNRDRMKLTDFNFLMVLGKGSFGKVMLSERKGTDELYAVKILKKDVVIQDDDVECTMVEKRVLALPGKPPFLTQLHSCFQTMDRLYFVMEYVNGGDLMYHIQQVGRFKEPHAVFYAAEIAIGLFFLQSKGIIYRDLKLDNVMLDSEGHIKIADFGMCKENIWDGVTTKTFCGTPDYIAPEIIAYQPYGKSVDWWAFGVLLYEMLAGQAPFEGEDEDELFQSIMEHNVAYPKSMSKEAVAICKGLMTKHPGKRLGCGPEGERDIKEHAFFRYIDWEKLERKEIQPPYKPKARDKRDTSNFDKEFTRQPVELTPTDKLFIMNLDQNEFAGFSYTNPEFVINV
Measurement name: IC50 (µM)
Quick note: give the figure in µM, leave out the unit.

input: Bench note: what IC50 did `CCCCCCCCCCCCCCCC[C@@]1(OC)C=C[C@@H](CC(=O)OC)OO1` show?
output: 119

----------
Measurement name: IC50

input: Value wanted: IC50 (Protein kinase C alpha type (Homo sapiens)) of entry `CCCCCCCCCCCCCCCC[C@@]1(OC)C=C[C@@H](CC(=O)OC)OO1`
output: 87.2 µM

----------
target: Protein kinase C beta type (Homo sapiens, UniProt P05771); assay: Inhibition of PKCbeta2
Measurement name: IC50 (µM)
Quick note: give the figure in µM, leave out the unit.

input: Bench note: what IC50 did CCCCCCCCCCCCCCCC[C@@]1(OC)C=C[C@@H](CC(=O)OC)OO1 [CHONDRILLIN] show?
output: 119
